Assignment: determine reported melting point for the given molecules.

Solved cases below.
Molecule: N#Cc1ccc(OC2CCOC2=O)cc1C(F)(F)F (single isomer, unassigned; (+)) [Example 5]
melting point: 107 to 108 °C
//
Molecule: N#Cc1ccc(OC2CCOC2=O)cc1C(F)(F)F (racemic) [Example 4]
melting point: 120 °C
//
Molecule: CC1(C)COC(=O)[C@H]1Oc1ccc(C#N)c(C(F)(F)F)c1
melting point: 83.1 to 84.4 °C

API: the following record is the query input.
(Q) Identify melting point associated with the molecule CC1(C)COC(=O)[C@@H]1Oc1ccc(C#N)c(C(F)(F)F)c1
(A) 89.9 to 90.7 °C

* * *

- Subject of test: androgen receptor (Homo sapiens)
- Test method notes: AR antagonist cell assay (MMTV-luciferase reporter, MDA-MB453-MMTV clone 54-19)
- Assay type: cell-based
Measured quantity: IC50 (nM)
Give bare numbers, in nM.

Molecule: CC1(C)COC(=O)[C@@H]1Oc1ccc(C#N)c(C(F)(F)F)c1 [Example 2]
IC50 (nM): 47

Please look at the following molecule next.
(Q) Give the reported IC50 for this molecule. CC1(C)COC(=O)C1Oc1ccc(C#N)c(C(F)(F)F)c1 (racemic) [Example 1]
(A) 60

* * *

- Subject of test: androgen receptor (Homo sapiens, UniProt P10275)
- Sequence (P10275 whole entry): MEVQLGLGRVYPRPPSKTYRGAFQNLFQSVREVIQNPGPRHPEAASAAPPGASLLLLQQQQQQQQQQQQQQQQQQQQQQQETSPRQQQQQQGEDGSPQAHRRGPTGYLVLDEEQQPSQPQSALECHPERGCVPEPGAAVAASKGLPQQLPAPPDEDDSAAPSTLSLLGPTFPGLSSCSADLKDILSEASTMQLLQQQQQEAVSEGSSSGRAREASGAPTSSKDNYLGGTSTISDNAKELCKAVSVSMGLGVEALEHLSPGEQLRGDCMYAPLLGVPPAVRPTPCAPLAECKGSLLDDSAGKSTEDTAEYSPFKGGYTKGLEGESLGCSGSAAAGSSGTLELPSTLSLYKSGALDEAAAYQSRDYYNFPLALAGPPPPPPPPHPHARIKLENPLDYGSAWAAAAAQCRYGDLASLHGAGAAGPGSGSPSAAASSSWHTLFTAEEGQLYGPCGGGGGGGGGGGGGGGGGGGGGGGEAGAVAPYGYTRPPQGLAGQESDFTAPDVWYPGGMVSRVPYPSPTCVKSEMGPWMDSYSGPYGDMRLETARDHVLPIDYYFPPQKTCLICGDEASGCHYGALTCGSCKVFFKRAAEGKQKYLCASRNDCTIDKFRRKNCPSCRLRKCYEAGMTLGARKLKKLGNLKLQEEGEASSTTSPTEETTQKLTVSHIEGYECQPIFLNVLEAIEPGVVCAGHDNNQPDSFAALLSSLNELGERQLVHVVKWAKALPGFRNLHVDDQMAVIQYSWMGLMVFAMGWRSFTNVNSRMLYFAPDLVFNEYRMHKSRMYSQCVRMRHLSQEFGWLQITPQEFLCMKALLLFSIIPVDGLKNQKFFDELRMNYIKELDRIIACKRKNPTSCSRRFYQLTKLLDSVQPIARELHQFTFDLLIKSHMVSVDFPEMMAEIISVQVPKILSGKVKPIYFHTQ
- Test method notes: AR antagonist cell assay (MMTV-luciferase reporter, MDA-MB453-MMTV clone 54-19)
- Assay type: cell-based
- Measurement parameters: inhibition of induction by 100 pM DHT, 17 hr; mean of multiple tests; read-out: ARCell (IC50)
Measured quantity: IC50

(Q) Please indicate IC50 recorded for CC1(C)COC(=O)[C@H]1Oc1ccc(C#N)c(C(F)(F)F)c1
(A) > 1000 nM
